Test system: R275C/beta2Delta
Assay: modulators of BK channel variants, profiling panel, selectivity assay, cell-based, U2OS BacMam, thallium flux, beta subunits (AID 1259406);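 note: initial slope of Thallos dye fluorescence rise after thallium is added; log ratio against the mean of 0.3% DMSO vehicle wells on the same plate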
Details: at 30 µM
Quick reference for log fold change Tl+ flux among some compounds
Returns: the value as a bare number; no unit string appended.

CCOC(=O)c1cc(NC(=O)CC(C)(C)CC(=O)O)ccc1N1CCCCC1; 0.0261
O=S(=O)(CCN1CCN(Cc2ccccc2)CC1)c1ccc(F)cc1; 0.00728
FC(F)(F)c1ccc(-c2csc(C3(c4ccc(Cl)cc4Cl)CC3)n2)cc1; -0.00666
Cc1nc2ccc(C(=O)O)cc2[nH]1; 0.0118
Cc1ncc(CSc2nc(C(C)(C)C)cs2)c(CO)c1O; 0.0196
NNC(=O)Cc1csc2nc(-c3ccccc3)nn12; 0.0113

Specify reported log fold change Tl+ flux for the compound shown: `O=C(O)C[C@H](O)C[C@H](O)/C=C/c1c(C2CC2)nc2ccccc2c1-c1ccc(F)cc1`
0.114

Specify reported log fold change Tl+ flux for the compound shown: `CN1CCN(CC(=O)Nc2ccccc2Oc2ccccc2)CC1`
0.00784

Specify reported log fold change Tl+ flux for the compound shown: `CO[C@H]1/C=C/O[C@@]2(C)Oc3c(C)c(O)c4c(O)c(c5c(c4c3C2=O)NC2(CCN(CC(C)C)CC2)N=5)=NC(=O)/C(C)=C\C=C\[C@H](C)[C@H](O)[C@@H](C)[C@@H](O)[C@@H](C)[C@H](OC(C)=O)[C@@H]1C`
-0.107

----------
Experiment: inhibitors of polyQ protein aggregation (AID 1604)
Details: polyglutamine-induced protein aggregation inhibition assay; stronger effect = higher value; concentration not given here
Quick reference for inhibition of aggregation among some molecules
Report only the number, with the unit % understood.

Answered examples (3):
CN1CCC[C@H]1c1cccnc1; 47.1
C[C@]12CCC3c4ccc(O)cc4CCC3C1C[C@@H](O)[C@@H]2O (some centres not stated); 84.5
CC(=O)[C@H]1CCC2C3C[C@H](C)C4=CC(=O)CC[C@]4(C)C3[C@@H](O)C[C@@]21C (some centres not stated); 53.9

Specify reported inhibition of aggregation for the molecule shown: Cn1nnnc1SCC1=C(C(=O)O)N2C(=O)C(NC(=O)C(O)c3ccccc3)C2SC1 (configuration not stated)
39.4

----------
Assay: viability rescue of complex I mutant cybrids, primary screen, cell-based, galactose medium, ATP luminescence (AID 1645843);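 note: positive z means more ATP and so rescue of galactose-driven cybrid death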
Settings: complex I mutant cybrid cells, 72 h, stronger effect = higher value
endpoint-label: z-score
Returns: the value as a bare number; no unit string appended.

Answered examples (10):
N.N.O=C(O)C1(C(=O)O)CCC1.[Pt]; -0.15
CC(C)Cc1ccc([C@H](C)C(=O)O)cc1; 0.53
O=C(NCCCCCCNC(=O)ON=C1CCCCC1)ON=C1CCCCC1; -0.255
N=C(N)SCCN; -0.855
O=c1[nH]c(=O)n(C2CC(O)C(CO)O2)cc1F (configuration not stated); -1.07
N#Cc1c(O)c2c(-c3ccc(-c4ccccc4O)cc3)csc2[nH]c1=O; 1.98
CN(C)CC/C=C1/c2ccccc2COc2ccccc21; -0.705
Cc1ccc(-c2nn(C(C)(C)C)c3ncnc(N)c23)cc1; 0.19
Nc1ccc2cn[nH]c2c1; 0.52
NC(=O)c1ncn(C2OC(CO)C(O)C2O)n1 (configuration not stated); 1.69

Specify reported z-score for the compound shown: C[C@]12CCC3c4ccc(OS(=O)(=O)O)cc4CCC3C1CCC2=O (some centres not stated)
0.9

Specify reported z-score for the compound shown: CCC(CO)NCCNC(CC)CO (configuration not stated)
0.45

Specify reported z-score for the compound shown: COC1CCC(C(=O)c2ccc3nc4c(cc3c2)CCCO4)CC1 (configuration not stated)
0.32

Specify reported z-score for the compound shown: `CSc1nc2cc(Oc3cccc(Cl)c3Cl)c(Cl)cc2[nH]1`
-1.88

Specify reported z-score for the compound shown: CC(CCc1ccc(O)cc1)NCC(O)c1ccc(O)cc1 (configuration not stated)
0.065

Specify reported z-score for the compound shown: `CCOc1cc(C(=O)Nc2ccc(Cl)c(-c3nc4ccccc4[nH]3)c2)cc(OCC)c1OCC`
0.375

Reference source for all entries: PubChem BioAssay
